- Measurement Target: Bromodomain-containing protein 2 (Homo sapiens, UniProt P25440)
- Sequence (P25440 whole entry): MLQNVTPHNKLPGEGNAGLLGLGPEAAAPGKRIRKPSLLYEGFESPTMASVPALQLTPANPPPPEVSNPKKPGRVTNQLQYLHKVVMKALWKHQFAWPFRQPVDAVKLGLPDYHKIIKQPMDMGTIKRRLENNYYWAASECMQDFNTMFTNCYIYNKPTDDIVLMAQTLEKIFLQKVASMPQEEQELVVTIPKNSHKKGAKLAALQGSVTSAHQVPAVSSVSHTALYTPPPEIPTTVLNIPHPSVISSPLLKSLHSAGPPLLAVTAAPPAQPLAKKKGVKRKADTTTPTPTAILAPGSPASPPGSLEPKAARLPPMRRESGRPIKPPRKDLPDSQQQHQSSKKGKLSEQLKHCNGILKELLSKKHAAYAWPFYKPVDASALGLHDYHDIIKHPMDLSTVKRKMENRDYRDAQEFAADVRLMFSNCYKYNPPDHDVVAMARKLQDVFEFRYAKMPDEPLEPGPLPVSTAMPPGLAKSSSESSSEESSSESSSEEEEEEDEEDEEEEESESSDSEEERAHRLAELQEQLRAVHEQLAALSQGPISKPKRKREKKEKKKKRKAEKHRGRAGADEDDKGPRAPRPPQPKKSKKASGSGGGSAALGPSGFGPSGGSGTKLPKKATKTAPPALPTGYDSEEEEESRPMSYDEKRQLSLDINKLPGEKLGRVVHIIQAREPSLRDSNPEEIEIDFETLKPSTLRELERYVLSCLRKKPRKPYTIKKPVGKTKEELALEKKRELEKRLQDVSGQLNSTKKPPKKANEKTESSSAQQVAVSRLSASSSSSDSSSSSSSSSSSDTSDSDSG
- Protocol Details: Binding affinity to BRD2 BD2 (unknown origin) assessed as dissociation constant
Readout: pKd
Remember the convention: pKd equals -log10 of concentration in molar.

"CC(=O)N1c2ccc(C(N)=O)cc2[C@H](Nc2ncc(Cl)cn2)C[C@@H]1C" yielded pKd of 8.10

* * *

- Protocol Details: Terminal half life in Wistar Han rat blood at 3 mg/kg, po or 1.3 mg/kg, iv measured upto 24 hrs by LC-MS/MS analysis
- Assay type: ADME, organism-based
- Condition Summary: read-out: beta t1/2 (converted)
Readout: half-life (h)
The figure you give is taken to be in h; do not add the unit.

The reported value for "CC(=O)N1c2ccc(C(N)=O)cc2[C@H](Nc2ncc(Cl)cn2)C[C@@H]1C" in terms of half-life is 1.6
